experiment: Clearance in Sprague-Dawley rat at 2 mg/kg, iv; format: ADME, organism-based; conditions: in vivo
parameter: clearance (mL/min/kg)
Provide the reading as a plain figure in mL/min/kg.

See these solved cases before continuing.
In [3]: df
Out[3]:
                           structure_string  recorded_number
0  CCCC[C@H](CN(O)C=O)C(=O)N1CC2(CC2)C[C@H]1C(=O)Nc1ccc(C)c(Nc2nccc(-c3cccnc3)n2)c1             37.7
1  CCCC[C@H](CN(O)C=O)C(=O)N1CC2(CC2)C[C@H]1C(=O)Nc1ncc(C)s1             23.5

What the record says about `CCCC[C@H](CN(O)C=O)C(=O)N1CC2(CC2)C[C@H]1c1nc(-c2cccnc2)no1` : clearance is 51.2

What the record says about `CCCC[C@H](CN(O)C=O)C(=O)N1CC2(CC2)C[C@H]1C(=O)Nc1ccc(F)c[n+]1[O-]` : clearance is 26.2

What the record says about `CCCC[C@H](CN(O)C=O)C(=O)N1CC2(CC2)C[C@H]1C(=O)Nc1cc(C(C)(C)C)on1` : clearance is 29.6

What the record says about `CCCC[C@H](CN(O)C=O)C(=O)N1CC2(CC2)C[C@H]1c1nc2ccccc2[nH]1` : clearance is 26.4
